- Tested on: trichomonal hydrolases
- test_protocol: Experiment 8: polypeptide inhibition of trichomonal hydrolases
- Assay type: biochemical, Trichomonas vaginalis
- Parameters: key: 0: Yellow; 1: Peach; 2: Orange; 3: Light to medium pink; 4: Dark pink or red; 5: Fuchsia; 6: Purple
- run_parameters: pH 5, ZRR-MNA, 10 mM polypeptide in substrate solution
Ends that are not written are not given here.
Quick reference for Hydrolase activity color score with polypeptide among some substances
Respond with the number and no other words.

Enquiry: Look up Hydrolase activity color score with polypeptide for this substance: KPQLWP
Return: 3

Enquiry: Another substance: RPKPQFFGLM [Arg-Pro-Lys-Pro-Gln-Phe-Phe-Gly-Leu-Met]
Return: 1

Enquiry: Quick one: KRQHPG
Return: 3

Enquiry: Follow-up entry: Arg-Lys-Asn-Val-Tyr (RKNVY; printed: Arg-Lys-Asn-Val-Tyr)
Return: 3

----------
In this section we review reported Hydrolase activity color score with polypeptide values for a set of substances.
- Tested on: non-trichomonal hydrolases present in vaginal fluid
- test_protocol: Experiment 8: polypeptide inhibition of hydrolases in whole vaginal fluid of uninfected women
- Assay type: biochemical, human
- Set-up: key: 0: Yellow; 1: Peach; 2: Orange; 3: Light to medium pink; 4: Dark pink or red; 5: Fuchsia; 6: Purple
- run_parameters: pH 8; Donor D whole vaginal fluid; ZRR-MNA; 10 mM polypeptide in substrate solution
Ends that are not written are not given here.
Form rule: numeric answer, no unit written next to it.

>  <substance>
KRQHPG

>  <system_name>
non-trichomonal hydrolases present in vaginal fluid

>  <readout_number>
2

$$$$
>  <substance>
RPKPQFFGLM [Arg-Pro-Lys-Pro-Gln-Phe-Phe-Gly-Leu-Met]

>  <system_name>
non-trichomonal hydrolases present in vaginal fluid

>  <readout_number>
0

$$$$
>  <substance>
Arg-Lys-Asn-Val-Tyr (RKNVY; printed: Arg-Lys-Asn-Val-Tyr)

>  <system_name>
non-trichomonal hydrolases present in vaginal fluid

>  <readout_number>
1

$$$$

Lab note: next substance to report on.
Enquiry: # lookup: Hydrolase activity color score with polypeptide of KPQLWP
Return: 0

----------
Hydrolase activity color score with polypeptide values by entry
- System: non-trichomonal hydrolases present in vaginal fluid
- test_protocol: Experiment 8: polypeptide inhibition of hydrolases in whole vaginal fluid of uninfected women
- Type: biochemical, human
- Set-up: key: 0: Yellow; 1: Peach; 2: Orange; 3: Light to medium pink; 4: Dark pink or red; 5: Fuchsia; 6: Purple
- run_parameters: pH 5; Donor B whole vaginal fluid; ZRR-MNA; 10 mM polypeptide in substrate solution
Ends that are not written are not given here.
Form rule: numeric answer, no unit written next to it.

Consider the following illustrative entries.
>  <substance>
KPQLWP

>  <readout_number>
0

$$$$
>  <substance>
Arg-Lys-Asn-Val-Tyr (RKNVY; printed: Arg-Lys-Asn-Val-Tyr)

>  <readout_number>
0

$$$$
>  <substance>
KRQHPG

>  <readout_number>
2

$$$$

Field: next substance
Enquiry: Suppose we examine the substance RPKPQFFGLM [Arg-Pro-Lys-Pro-Gln-Phe-Phe-Gly-Leu-Met] ; what Hydrolase activity color score with polypeptide value has been reported?
Return: 1

----------
- System: trichomonal hydrolases
- test_protocol: Experiment 13: hydrolysis of peptide substrates by trichomonal hydrolases at low pH, no vaginal fluid
- Format: biochemical, Trichomonas vaginalis
- Parameters: key: −: No red color produced; +: Clearly visible red color produced; ++: Moderately intense red color produced; +++: Very intense red color produced
- run_parameters: without vaginal fluid; threonine buffer pH 2.4; 2 mM substrate solution; 10 min 25° C.; Fast Garnet
Peptide text beside a SMILES is read from it. * marks the point of attachment. βNA = c1ccc2cc(N*)ccc2c1

>  <compound>
NCC(=O)NCC(=O)Nc1ccc2ccccc2c1 [Gly-Gly-βNA] (H-Gly-Gly-βNA)

>  <Color Score>
−

$$$$
>  <compound>
CC(=O)O.COc1cc(NC(=O)[C@H](CCCN=C(N)N)NC(=O)[C@H](CCCN=C(N)N)NC(=O)[C@H](CCCN=C(N)N)NC(=O)OCc2ccccc2)cc2ccccc12

>  <Color Score>
+++

$$$$
>  <compound>
COc1cc(NC(=O)[C@H](CCCNC(=N)N)NC(=O)CNC(=O)CNC(=O)OCc2ccccc2)cc2ccccc12

>  <Color Score>
−

$$$$
